Subject of test: T1, recombinant human 4R0N tau (human, UniProt P10636 2-758)
T1 construct: also called recombinant 4R0N human tau; P10636-6
Test name: SPR Biacore T200; antibody captured by anti-human Fc; tau as analyte; global 1:1 fit
Observed property: kon
Include the unit right after the number.

Consider hu9F5VHv10/hu9F5VLv9_DIM20 (antibody, V domains shown) VH: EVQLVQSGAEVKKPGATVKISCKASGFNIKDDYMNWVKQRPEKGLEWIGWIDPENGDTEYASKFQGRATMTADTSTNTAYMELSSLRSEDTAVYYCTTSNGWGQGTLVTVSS VL: DIQMTQSPFSLPVTPGESASISCRSSKSLSHSNGITYLYWYQQKPGQSPQLLIYQISNGASGVPDRFSSSGSGTDFTLKISRVEAEDVGVYYCAQNIELPLTFGQGTKLEIK . Its measured kon is 3.47e+06 M⁻¹ s⁻¹

So, hu9F5VHv9/hu9F5VLv8 (antibody, V domains shown) VH: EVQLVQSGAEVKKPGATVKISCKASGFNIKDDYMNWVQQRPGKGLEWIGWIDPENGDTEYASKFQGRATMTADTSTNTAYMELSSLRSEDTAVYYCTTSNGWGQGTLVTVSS VL: DIVMTQSPFSLPVTPGESASISCRSSKSLLHSNGITYLYWYLQKPGQSPQLLIYQMSNLASGVPNRFSSSGSGTDFTLKISRVEAEDVGVYYCAQNLELPLTFGQGTKLEIK ? Its kon was 1.72e+06 M⁻¹ s⁻¹
